- system: Peroxisome proliferator-activated receptor gamma (Homo sapiens)
- Sequence (P37231 whole entry, the tested form may be a part): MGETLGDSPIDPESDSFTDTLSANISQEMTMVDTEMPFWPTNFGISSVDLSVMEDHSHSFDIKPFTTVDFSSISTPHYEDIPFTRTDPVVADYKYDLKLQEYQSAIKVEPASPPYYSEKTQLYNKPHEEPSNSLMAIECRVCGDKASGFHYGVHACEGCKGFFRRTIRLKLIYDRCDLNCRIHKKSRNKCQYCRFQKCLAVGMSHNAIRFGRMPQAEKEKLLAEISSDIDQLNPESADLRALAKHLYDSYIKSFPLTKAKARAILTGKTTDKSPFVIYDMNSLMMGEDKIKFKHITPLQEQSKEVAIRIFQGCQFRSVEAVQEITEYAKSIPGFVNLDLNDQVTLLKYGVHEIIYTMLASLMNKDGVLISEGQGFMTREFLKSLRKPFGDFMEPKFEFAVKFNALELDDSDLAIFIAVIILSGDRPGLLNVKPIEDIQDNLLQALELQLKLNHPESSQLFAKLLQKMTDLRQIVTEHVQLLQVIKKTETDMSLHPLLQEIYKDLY
- test.description: Agonist activity at human PPAR gamma in HepG2 cells by PPAR-GAL4 transactivation assay
readout.type: pEC50
Give only the number. pEC50 is defined as minus log10 of concentration in molar units.

compound	pEC50
COc1cccc(-c2nc(CCOc3ccc(CC4(C(=O)O)CCCO4)nc3)c(C)o2)c1 (stereo not given)	8.30

q: Form entry - test system: Peroxisome proliferator-activated receptor gamma (Homo sapiens); read-out: pEC50; compound: COC(Cc1ccc(OCCc2nc(-c3ccccc3)oc2C)cn1)C(=O)O (stereo not given)
a: 6.55

q: Form entry - test system: Peroxisome proliferator-activated receptor gamma (Homo sapiens); read-out: pEC50; compound: COC(C)(Cc1ccc(OCCc2nc(-c3ccccc3)oc2C)cn1)C(=O)O (stereo not given)
a: 6.47

q: Form entry - test system: Peroxisome proliferator-activated receptor gamma (Homo sapiens); read-out: pEC50; compound: Cc1cccc(-c2nc(CCOc3ccc(CC4(C(=O)O)CCCO4)nc3)c(C)o2)c1 (stereo not given)
a: 7.92

q: Form entry - test system: Peroxisome proliferator-activated receptor gamma (Homo sapiens); read-out: pEC50; compound: CCOC(Cc1ccc(OCCc2nc(-c3ccccc3)oc2C)cn1)C(=O)O (stereo not given)
a: 6.89

q: Form entry - test system: Peroxisome proliferator-activated receptor gamma (Homo sapiens); read-out: pEC50; compound: Cc1oc(-c2ccc(Cl)cc2)nc1CCOc1ccc(CC2(C(=O)O)CCCO2)nc1 (stereo not given)
a: 6.89

q: Form entry - test system: Peroxisome proliferator-activated receptor gamma (Homo sapiens); read-out: pEC50; compound: COc1ccc(-c2nc(CCOc3ccc(CC4(C(=O)O)CCCO4)nc3)c(C)o2)cc1 (stereo not given)
a: 6.98

q: Form entry - test system: Peroxisome proliferator-activated receptor gamma (Homo sapiens); read-out: pEC50; compound: Cc1oc(-c2ccccc2)nc1CCOc1ncc(CC2(C(=O)O)CCCO2)cn1 (stereo not given)
a: 5.60

q: Form entry - test system: Peroxisome proliferator-activated receptor gamma (Homo sapiens); read-out: pEC50; compound: Cc1oc(-c2ccccc2)nc1CCOc1cnc(CC2(C(=O)O)CCCO2)cn1 (stereo not given)
a: 6.81
